The measurements presented in this section are drawn from the supplement of paper PMC10567573.

B1: RAB22A (parent)
chain: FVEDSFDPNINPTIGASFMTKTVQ

# Variants of: B1
# Assay Name: protein stability index of a GFP-peptide fusion (GPS, HEK-293T) (PSI 1-6); higher = more stable;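 further: lentivirally expressed fusions sorted by FACS into six bins by GFP to DsRed ratio, PSI derived from sequencing read proportions per bin multiplied by bin number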
# Condition Details: c terminus: a fixed tail appended
protein stability index reference
Measure: protein stability index

[[record]]
sequence_change = "T13Y"
test_result = 1.73

[[record]]
sequence_change = "V23W"
test_result = 2.5

[[record]]
sequence_change = "E3Q"
test_result = 1.75

[[record]]
sequence_change = "D7P"
test_result = 1.96

[[record]]
sequence_change = "Q24E"
test_result = 2.91

[[record]]
sequence_change = "N9H"
test_result = 2.22

[[record]]
sequence_change = "T20G"
test_result = 2.58

[[record]]
sequence_change = "T20M"
test_result = 2.22

[[record]]
sequence_change = "N11S"
test_result = 2.04

[[record]]
sequence_change = "F1D"
test_result = 4.45

[[record]]
sequence_change = "T22C"
test_result = 2.35

[[record]]
sequence_change = "D4T"
test_result = 1.89

[[record]]
sequence_change = "G15M"
test_result = 2.06

[[record]]
sequence_change = "N9P"
test_result = 2.49

[[record]]
sequence_change = "A16S"
test_result = 2.86

[[record]]
sequence_change = "F6Q"
test_result = 2.88

[[record]]
sequence_change = "F6C"
test_result = 2.67

[[record]]
sequence_change = "I10T"
test_result = 2.83

[[record]]
sequence_change = "I10K"
test_result = 2.5

[[record]]
sequence_change = "P12C"
test_result = 2.06

[[record]]
sequence_change = "P12N"
test_result = 2.15

[[record]]
sequence_change = "K21M"
test_result = 1.94

